- Species on record: Homo sapiens
- protocol_details: Selectivity index, IC50 for human plasmin/IC50 for human uPA
measurement_kind: Selectivity index

Cc1cccc(C)c1C(=O)N[C@H](CO)C(=O)N[C@@H](C)C(=O)NC(Cc1ccc(NC(=N)N)cc1)P(=O)(Oc1ccccc1)Oc1ccccc1 (stereo partly drawn)    700
C[C@H](NC(=O)[C@@H](CO)NC(=O)OCc1ccccc1)C(=O)NC(Cc1ccc(NC(=N)N)cc1)P(=O)(Oc1ccccc1)Oc1ccccc1 (stereo partly drawn)    470

# return recorded Selectivity index for entry CC(=O)Nc1ccc(OP(=O)(Oc2ccc(NC(C)=O)cc2)C(Cc2ccc(NC(=N)N)cc2)NC(=O)[C@H](C)NC(=O)[C@@H](CO)NC(=O)OCc2ccccc2)cc1 (stereo partly drawn)
130
